- System: ACHN
- Method Description: NCI tumour cell line growth inhibition, 48 h
Activity calls are given as the source filed them. Cut-off read from the data, not from the text of the source: active = GI50 up to about 1.1 µM and inactive = higher.
Outcome codes: active, inactive

>>> label_value("CCN(CC)CCCNc1ccc([N+](=O)[O-])c2nc3ccccc3c(N)c12")
"active"
>>> label_value("CC1CN1c1c(C(=O)/C=C/c2ccccc2)c(-c2ccccc2)nn(C)c1=O (stereo not drawn)")
"inactive"
>>> label_value("N#Cc1c(N2CCOCC2)ncn(-c2ccccc2)c1=O")
"inactive"

---

Each item that follows carries a reported GI50.
- System: M14
- Method Description: NCI tumour cell line growth inhibition, 48 h
Activity calls are given as the source filed them. Cut-off read from the data, not from the text of the source: active = GI50 up to about 1.1 µM and inactive = higher.
Readout Name: GI50

>>> endpoint_result("CC(=O)Nc1ccc(C(=O)NN2C(=O)CSC2c2ccc([N+](=O)[O-])cc2)cc1 (configuration not stated)")
"> 100 µM (inactive)"
>>> endpoint_result("Clc1cc2nc[nH]c2cc1Cl")
"> 100 µM (inactive)"
>>> endpoint_result("COc1cc(OC)c2[nH]c3c(O)c(-c4c(C)cc5c([nH]c6c(OC)cc(OC)cc65)c4O)c(C)cc3c2c1")
"8.38 µM (inactive)"
>>> endpoint_result("C[N+](C)(C)CC(=O)N/N=C(/CC(=O)CC(C1=C(O)c2ccccc2OC1)c1ccccc1)C(=O)Nc1cccc(Cl)c1 (configuration not stated)")
"> 100 µM (inactive)"
>>> endpoint_result("COC(=O)C(CC=O)C(=O)C(=O)Nc1cccc(C(F)(F)F)c1 (configuration not stated)")
"> 100 µM (inactive)"
>>> endpoint_result("Cc1cc(Cl)ccc1N1C(=O)C(=O)C(c2nc3ccccc3o2)C(=O)C1=O")
"67 µM (inactive)"
>>> endpoint_result("N#Cc1c(N2CCOCC2)ncn(-c2ccccc2)c1=O")
"> 100 µM (inactive)"

---

- Test system: LOX IMVI
- Method Description: NCI tumour cell line growth inhibition, 48 h
The source made the active and inactive calls. No stated cut-off is given here; in the data, active = GI50 up to about 1.1 µM and inactive = higher.
Each item that follows carries a reported GI50.
Readout Name: GI50

>>> endpoint_result("N#Cc1cc2c(n(C3OC(CO)C(O)C(O)C3O)c1=S)CCCCCC2 (stereo unspecified)")
"> 100 µM (inactive)"
>>> endpoint_result("C=C(Cl)C(Cl)(CBr)CCC(Cl)C(C)(C)Cl (stereo unspecified)")
"12.9 µM (inactive)"
>>> endpoint_result("COC(=O)C1CSC(c2csc(CCN)n2)=N1 (stereo unspecified)")
"> 100 µM (inactive)"
>>> endpoint_result("CCOP1(=O)C=C(Sc2ccc([N+](=O)[O-])cc2[N+](=O)[O-])C(C)(C)O1 (stereo unspecified)")
"3.83 µM (inactive)"
>>> endpoint_result("COCC(O)CN1C(N)=NC(O)C1O (stereo unspecified)")
"> 100 µM (inactive)"
>>> endpoint_result("Clc1ccc(-c2cc3nc4ccccc4nc3o2)cc1")
"> 100 µM (inactive)"

---

Each item that follows carries a reported GI50.
- System: MDA-N
- Method Description: NCI tumour cell line growth inhibition, 48 h
Active and inactive are the calls of the source. No stated cut-off is given here; in the data, active = GI50 up to about 1.1 µM and inactive = higher.
Readout Name: GI50

>>> endpoint_result("Cc1ccc(OC2CC(n3cnc4ncnc(Cl)c43)OC2Oc2ccc(C)cc2)cc1 (stereo not given)")
"22.4 µM (inactive)"
>>> endpoint_result("O=C1C[C@@H](C(=O)OCc2ccccc2)NC(=O)C[C@@H](C(=O)OCc2ccccc2)NC(=O)C[C@@H](C(=O)OCc2ccccc2)N1")
"> 100 µM (inactive)"
>>> endpoint_result("Cn1c(=O)c2c(no[n+]2[O-])c2ccccc21")
"26.4 µM (inactive)"
>>> endpoint_result("c1cnc(N2CCN(Cc3c[nH]c4ccccc34)CC2)nc1")
"25.1 µM (inactive)"
>>> endpoint_result("Cc1ccc(-c2c(C#N)c(-c3ccc(Cl)cc3)c(C#N)c(=O)n2NS(=O)(=O)c2ccc(C)cc2)cc1")
"43.8 µM (inactive)"
>>> endpoint_result("C[C@@H](CC(O)C(O)C(C)(C)O)C1CCC23CC12CCC1[C@@]2(C)CCC(O)C(C)(C)C2CC(OC2OC(CO)C(O)C(O)C2O)[C@]13C (stereo not given in full)")
"> 10 µM (inactive)"
>>> endpoint_result("COc1ccc(CCN2CCc3c(C)c(C#N)c4nc5ccccc5n4c32)cc1OC")
"19.1 µM (inactive)"
>>> endpoint_result("CC1(C)CNC(=O)C2(/C=N/C(C)(C)CNC(=O)C3(/C=N/1)CCCO3)CCCO2 (stereo not given)")
"> 10 µM (inactive)"
>>> endpoint_result("CC(C)(C)OC(=O)NCCCCCCC(=O)Cc1ccccc1")
"> 100 µM (inactive)"
>>> endpoint_result("Cc1nc2c(Cl)cc(Cl)cc2c(Cl)c1CCCl")
"> 100 µM (inactive)"
